system: Chickweed; test: Postemergence herbicidal activity, chickweed; format: in vivo; conditions: Stellaria media, post-emergence, 0.3 kg/ha, after 17-21 days, read-out: Postemergence herbicidal activity (% control), Chickweed
METRIC NAME: activity at 300 g/ha (%)

* COc1ccc(COc2ccc(-n3c(=O)cc(C(F)(F)F)n(C)c3=O)cc2)cc1 [Compound 44] | 20
* Cn1c(C(F)(F)F)cc(=O)n(-c2ccc(OCc3ccc(Cl)c(Cl)c3)cc2)c1=O [Compound 41] | 85
* Cn1c(C(F)(F)F)cc(=O)n(-c2ccc(OCc3ccc(F)cc3)cc2F)c1=O [Compound 11] | 80

Every entry's value here was drawn from patent US5399543A.
